Consider the following molecules; for each one, report its selectivity ratio.
# procedureSummary: Selectivity index, ratio of IC50 for human RPE1 cells to IC50 for human CCRF-CEM cells
# Assay type: toxicity
# measurementConditions: RPE1 cells versus CCRF-CEM cells, read-out: Ratio IC50

State the recorded selectivity ratio for this entry: CCNc1[nH]nc2nnn(-c3ccc(OCC)cc3)c(=O)c12 > 6.6

Would you kindly repeat that for CCOc1ccc(NC(=O)/C(C#N)=C(\NC23CC4CC(CC(C4)C2)C3)SC)cc1 ? > 5.7

Would you kindly repeat that for C=CCNc1[nH]nc2nnn(-c3ccc(OCC)cc3)c(=O)c12 ? > 21.2

Would you kindly repeat that for CCOc1ccc(-n2nnc3n[nH]c(Nc4ccccc4)c3c2=O)cc1 ? > 16.9

Would you kindly repeat that for CCOc1ccc(NC(=O)c2c(N)n[nH]c2Nc2ccccc2)cc1 ? 15.1

Would you kindly repeat that for CCOc1ccc(NC(=O)c2c(N)n[nH]c2NC23CC4CC(CC(C4)C2)C3)cc1 ? 5.3

Would you kindly repeat that for CCN/C(SC)=C(/C#N)C(=O)Nc1ccc(OCC)cc1 ? > 10.1

Would you kindly repeat that for CCOc1ccc(NC(=O)CC#N)cc1 ? > 7.1

Would you kindly repeat that for CCOc1ccc(NC(=O)/C(C#N)=C(\NC)SC)cc1 ? > 10.1

Would you kindly repeat that for CCOc1ccc(NC(=O)c2c(N)n[nH]c2NC)cc1 ? > 12.7
